test-system: UniProtKB P35869
Sequence (P35869 11-848): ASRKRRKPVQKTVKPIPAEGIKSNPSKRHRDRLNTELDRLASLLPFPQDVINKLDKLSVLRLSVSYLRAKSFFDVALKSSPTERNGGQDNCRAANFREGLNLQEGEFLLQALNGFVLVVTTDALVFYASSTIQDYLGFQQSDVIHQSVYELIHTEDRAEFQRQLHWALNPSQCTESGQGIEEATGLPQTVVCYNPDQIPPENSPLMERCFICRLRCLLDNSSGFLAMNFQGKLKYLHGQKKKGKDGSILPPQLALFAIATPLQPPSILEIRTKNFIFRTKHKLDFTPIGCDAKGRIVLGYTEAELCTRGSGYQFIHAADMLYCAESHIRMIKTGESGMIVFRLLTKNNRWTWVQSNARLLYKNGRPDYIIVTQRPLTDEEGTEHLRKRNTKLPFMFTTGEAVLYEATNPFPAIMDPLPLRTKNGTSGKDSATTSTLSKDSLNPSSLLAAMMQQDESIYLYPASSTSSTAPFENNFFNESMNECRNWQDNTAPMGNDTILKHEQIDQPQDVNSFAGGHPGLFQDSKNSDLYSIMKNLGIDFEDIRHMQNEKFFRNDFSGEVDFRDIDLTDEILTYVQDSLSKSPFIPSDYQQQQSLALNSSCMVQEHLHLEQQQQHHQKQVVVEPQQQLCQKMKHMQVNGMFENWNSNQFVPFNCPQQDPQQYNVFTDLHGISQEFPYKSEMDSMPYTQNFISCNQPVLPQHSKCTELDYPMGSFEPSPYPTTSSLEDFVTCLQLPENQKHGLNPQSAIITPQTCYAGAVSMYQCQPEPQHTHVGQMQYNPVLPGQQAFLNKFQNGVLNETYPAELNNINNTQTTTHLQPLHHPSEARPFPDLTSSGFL
assay-info: DRE-Luciferase reporter high-throughput screen (AHR antagonist, VAF347-activated)
# key: entry, value: IC50

COc1ccccc1C(=O)Nc1c(C)cc(C)c2cccnc12 [27B] ... 1 to 2 µM
COc1ccc(-n2nnc(C(=O)Nc3ccccc3C(F)(F)F)c2N)cc1 ... 0.2 to 0.5 µM
FC(F)(F)c1nnc2ccc(N3CCN(c4ccccc4)CC3)nn12 [73A] ... > 2 µM
Cc1ccc(NC(=O)c2cc3ccccc3n(C)c2=O)cc1 [29B] ... 1 to 2 µM
Cc1ccc(-n2nnc(-c3ccc(Cl)cc3)n2)cc1 [110A] ... 1 to 2 µM
O=C(c1cc2sc3ccccc3c2s1)N1CCCCC1 [186A] ... > 2 µM
Cc1nn(-c2ccccc2)c(N)c1-c1nc(-c2ccc(Cl)cc2)cs1 [59A] ... > 2 µM
COc1ccc(-c2ccc3c(N)c(C(=O)NC4CC4)sc3n2)cc1 ... 0.5 to 1 µM

Task: Checklist item: IC50 tested on UniProtKB P35869, entry CNC(=O)c1ccc(-c2cc(C(F)(F)F)nn2C)s1 [60B] , value?
Result: 1 to 2 µM

Task: IC50 of Cc1ccc2nc3c(c(N)c2c1)CCN3c1ccccc1 [124B] on UniProtKB P35869?
Result: 0.5 to 1 µM

----------
Measured IC50, listed per entry.
test-system: UniProt P35869
assay-info: DRE-Luciferase reporter high-throughput screen (AHR antagonist, VAF347-activated)

CCCNC(=O)c1cc2sc(Cl)cc2n1C [180A] ... > 2000 nM
CC(=O)N1CC=C(c2ccc(OCc3ccc(C#N)cc3)cc2)CC1 ... 200 to 500 nM
O=C(NCCc1ccc(Cl)cc1)c1cccc2nsnc12 [107B] ... 200 to 500 nM
O=C1CN(C(=O)c2sc3ccccc3c2Cl)c2ccccc2N1 ... 500 to 1000 nM

Task: Consider the molecule CCOC(=O)N1CCN(c2nc(Nc3ccc(C)cc3C)c3nccnc3n2)CC1 [82A] and give its measured IC50.
Result: 1000 to 2000 nM

----------
test-system: aryl hydrocarbon receptor (AHR) (Homo sapiens, UniProt P35869)
assay-info: DRE-Luciferase reporter high-throughput screen (AHR antagonist, VAF347-activated)
metric: IC50

Before answering, review these 10 worked examples.
FC(F)(F)Oc1ccc(-c2nnc(-c3cccnc3)o2)cc1 ... 500 to 1000 nM
CCOC(=O)c1ccc(Nc2nc3nonc3[nH]/c2=N\OC(C)=O)cc1 [97B] ... 1000 to 2000 nM
Cc1ccc(NC(=O)c2cccc(OCc3c(C)noc3C)c2)c(Cl)c1 ... 200 to 500 nM
COc1ccc(CC(=O)Nc2ccc(-c3nccs3)cc2)cc1S(=O)(=O)N1CCOCC1 ... 500 to 1000 nM
COc1ccc(N2CCN(c3nc(OC)nc(OC)n3)CC2)cc1 [68A] ... 1000 to 2000 nM
Cc1ccc(-c2nc(CSc3nccn3-c3ccccc3)co2)cc1 [136A] ... > 2000 nM
COc1c(C)cccc1C(=O)Nc1cc(-c2ccc(F)cc2)nn1C ... 500 to 1000 nM
COc1ccc(Nc2ccc3ccccc3n2)cc1Cl [157A] ... 1000 to 2000 nM
N#Cc1ccccc1OCc1cc(-c2cccs2)on1 [127A] ... 1000 to 2000 nM
C#CCn1cnc2c(nnn2-c2ccc(C)c(Cl)c2)c1=O [178A] ... > 2000 nM

Task: Return reported IC50; argument: O=C(Nc1cccnc1N1CCN(c2ncc(C(F)(F)F)cc2Cl)CC1)c1ccc(F)cc1 [81A]
Result: 1000 to 2000 nM

Task: // IC50 lookup, key: N#Cc1ccc(CSc2ncc3ccccn23)cc1 [115A]
Result: 1000 to 2000 nM

Task: What does the record list as IC50 for N#Cc1cccc(C#N)c1N1CCN(C(=O)Nc2ccccc2)CC1 ?
Result: 500 to 1000 nM

Task: Which value of IC50 has been reported for Clc1ccc(-c2csc(-c3ccc4c(c3)CCO4)n2)s1 [38B] in the records?
Result: 500 to 1000 nM

Task: Need IC50 of COCCNc1c(C)c(C)nc2cc(-c3cc(C)oc3C)nn12 [119A] , thanks.
Result: 1000 to 2000 nM

Task: Requested field: IC50. Item: CC(C)Nc1ccc(-n2nc3ccccc3[n+]2[O-])cc1 [176A]
Result: 1000 to 2000 nM

----------
test-system: aryl hydrocarbon receptor (AHR) (Homo sapiens, UniProt P35869)
assay-info: DRE-Luciferase reporter high-throughput screen (AHR antagonist, VAF347-activated)
IC50 listing for selected compounds.

O=S(=O)(Cc1cccc(F)c1)c1ccc2ccccc2c1 [93B] ... 0.2 to 0.5 µM
CCCSc1nc(N)c(C(=O)Nc2ccccc2)cc1C#N ... 0.2 to 0.5 µM
N#Cc1nc(NCC(O)c2ccc(OC(F)F)cc2)ccc1Cl (centres unmarked) ... 0.2 to 0.5 µM
CCOC(=O)c1cc(-c2ccc(F)cc2)[nH]c1C [100A] ... > 2 µM
COc1ccc(-c2cc3ncc(-c4ccccc4)c(N)n3n2)cc1 [118A] ... 1 to 2 µM

Task: Need IC50, item CCN(CC)c1ncnc2sc(-c3ccccc3)cc12 [170A]
Result: 1 to 2 µM

Task: Need IC50 of Nc1cc(-c2ccc3c(c2)CCCC3)nn1-c1ccccc1 , thanks.
Result: 0.5 to 1 µM

Task: Endpoint output: IC50 of Cc1ccc(NC(=O)CSc2nnc(C)c3ccccc23)cc1 [160A] . Value?
Result: 1 to 2 µM

Task: Could you share which IC50 value was measured for Cc1cccc(NC(=O)c2nc(-c3cn(CC4CCCO4)cn3)n3ccccc23)c1 (centres unmarked) [47A] ?
Result: > 2 µM

Task: If you can, please state the reported IC50 value of CCn1cc(C(=O)Nc2ccc(Br)cn2)cn1 [33A] .
Result: > 2 µM

Task: Report IC50 for N#Cc1ccc(-c2ccncc2)nc1SCc1ccccn1 please.
Result: 0.5 to 1 µM

----------
IC50 values, listed per item
test-system: aryl hydrocarbon receptor (AHR) (Homo sapiens, UniProt P35869)
assay-info: DRE-Luciferase reporter high-throughput screen (AHR antagonist, VAF347-activated)

Worked cases, IC50 given:
CCC(=O)N1CCc2nc(-c3ccccc3)sc2C1 ... 500 to 1000 nM
CCCCOc1ccc(C(=O)Nc2cccc(C(=O)OCC(C)C)c2)cc1 ... 500 to 1000 nM
CNC(=O)c1ccc(CN(C)C(=O)c2ccc(-c3nnc(-c4ccccc4C)o3)cc2)cc1 [140A] ... 1000 to 2000 nM
COc1ccc(Cl)cc1C(=O)Nc1ccc(NC(=O)c2cccc(S(C)(=O)=O)c2)c(Cl)c1 [10B] ... 200 to 500 nM
Cc1cc(C)n(-c2ccc(NC(=O)c3ccc(OC(F)F)cc3)cc2F)n1 ... > 2000 nM

Task: Look at this compound and give its reported IC50. O=C(N/N=C\c1ccccc1C(F)(F)F)c1n[nH]c2c1CCc1ccccc1-2
Result: 500 to 1000 nM

Task: Requested field: IC50. Item: Cc1ccc(-c2nc(-c3cc(C)on3)no2)cc1
Result: 500 to 1000 nM

Task: Look up IC50: COc1ccc(NC(=O)CSc2nnc(-c3sc4nc(C)cc(C)c4c3N)o2)cc1 [82B]
Result: 500 to 1000 nM

Task: Sample N#Cc1cc(F)c(NC(=O)c2nsc(Cl)c2Cl)cc1F [28A] — what was its IC50?
Result: 1000 to 2000 nM
